# PROCEDURE DETAILS: Hydrophobicity by analytical RP-HPLC (%B at elution)
# Format: physicochemical
# APPLIED CONDITIONS: chromatographic, analytical reversed-phase HPLC, Waters Symmetry C18 5 μm 4.6 × 250 mm; A: H2O + 0.1% TFA, B: 90:10 ACN-H2O + 0.1% TFA
Non-standard residues stand in square brackets, D forms with d. Residues, ends and D or L forms follow the SMILES beside them. *: point of attachment. Myristoyl = CCCCCCCCCCCCCC(=O)*; Octanoyl = CCCCCCCC(=O)*
QUANTITY NAME: %B (hydrophobicity: percentage of mobile phase B at the peak elution time) (%B)

COMPOUND	UNIT SPEC	MEASURED VALUE
CCCCCCCCCC(=O)N[C@H](CCCCN)C(=O)N[C@H](CCCCN)C(=O)N[C@H](CC(C)C)C(=O)N[C@H](Cc1ccccc1)C(=O)N[C@H](CCCCN)C(=O)N[C@H](CCCCN)C(=O)N[C@@H](C(=O)N1CCCC[C@H](C(N)=O)NC(=O)[C@@H](Cc2ccc(O)cc2)NC(=O)[C@@H](CCCNC(=N)N)NC(=O)[C@@H](CC(C)C)NC(=O)C1)[C@H](C)CC [compound 13]	%B	60.9
CC[C@@H](C)[C@H]1NC(=O)CN(C(=O)[C@@H](CCCCN)NC(=O)[C@@H](CCCCN)NC(=O)[C@@H](Cc2ccccc2)NC(=O)[C@@H](CC(C)C)NC(=O)[C@@H](CCCCN)NC(=O)[C@H](N)CCCCN)CCCC[C@H](C(N)=O)NC(=O)[C@@H](Cc2ccc(O)cc2)NC(=O)[C@@H](CCCNC(=N)N)NC(=O)[C@@H](CC(C)C)NC1=O [compound 9]	%B	46.6
CCCCCCCC(=O)N[C@H](CCCCN)C(=O)N[C@H](CCCCN)C(=O)N[C@H](CC(C)C)C(=O)N[C@H](Cc1ccccc1)C(=O)N[C@H](CCCCN)C(=O)N[C@H](CCCCN)C(=O)N[C@@H](C(=O)N[C@H](CC(C)C)C(=O)N[C@H](CCCNC(=N)N)C(=O)N[C@H](Cc1ccc(O)cc1)C(=O)N[C@H](CC(C)C)C(N)=O)[C@H](C)CC [compound 3] (Octanoyl-[dK][dK][dL][dF][dK][dK][dI][dL][dR][dY][dL]-NH2)	%B	64.1
CCCCCCCCCCCCCC(=O)N[C@H](CCCCN)C(=O)N[C@H](CCCCN)C(=O)N[C@H](CC(C)C)C(=O)N[C@H](Cc1ccccc1)C(=O)N[C@H](CCCCN)C(=O)N[C@H](CCCCN)C(=O)N[C@@H](C(=O)N[C@H](CC(C)C)C(=O)N[C@H](CCCNC(=N)N)C(=O)N[C@H](Cc1ccc(O)cc1)C(=O)N[C@H](CC(C)C)C(N)=O)[C@H](C)CC [compound 6] (Myristoyl-[dK][dK][dL][dF][dK][dK][dI][dL][dR][dY][dL]-NH2)	%B	96.5

====

# Test system: S. aureus (ATCC 29213)
# PROCEDURE DETAILS: MIC determination, broth microdilution
# Format: cell-based, Staphylococcus aureus
# APPLIED CONDITIONS: S. aureus ATCC 29213; MHB-II, inoculum 5 × 10^5 CFU/mL, 37 °C, 18–24 h, triplicate

ENTRY SMILES	MIC SA
CC[C@@H](C)[C@H]1NC(=O)CN(C(=O)[C@@H](CCCCN)NC(=O)[C@@H](CCCCN)NC(=O)[C@@H](Cc2ccccc2)NC(=O)[C@@H](CC(C)C)NC(=O)[C@@H](CCCCN)NC(=O)[C@H](N)CCCCN)CCCC[C@H](C(N)=O)NC(=O)[C@@H](Cc2ccc(O)cc2)NC(=O)[C@@H](CCCNC(=N)N)NC(=O)[C@@H](CC(C)C)NC1=O	> 64 µg/mL

====

# Test system: S. aureus (ATCC 29213)
# PROCEDURE DETAILS: MIC determination, broth microdilution
# Assay type: cell-based, Staphylococcus aureus
# APPLIED CONDITIONS: S. aureus ATCC 29213; MHB-II, inoculum 5 × 10^5 CFU/mL, 37 °C, 18–24 h, triplicate

ENTRY SMILES	MEASURED ON	MIC SA
CCCCCCCCCCCC(=O)N[C@H](CCCCN)C(=O)N[C@H](CCCCN)C(=O)N[C@H](CC(C)C)C(=O)N[C@H](Cc1ccccc1)C(=O)N[C@H](CCCCN)C(=O)N[C@H](CCCCN)C(=O)N1CCCC[C@H](C(N)=O)NC(=O)[C@@H](Cc2ccc(O)cc2)NC(=O)[C@@H](CCCNC(=N)N)NC(=O)[C@@H](CC(C)C)NC(=O)[C@@H]([C@H](C)CC)NC(=O)C1	S. aureus (ATCC 29213)	4 µg/mL
CC[C@@H](C)[C@@H](NC(=O)[C@@H](CCCCN)NC(=O)[C@@H](CCCCN)NC(=O)[C@@H](Cc1ccccc1)NC(=O)[C@@H](CC(C)C)NC(=O)[C@@H](CCCCN)NC(=O)[C@H](N)CCCCN)C(=O)N1CCCC[C@H](C(N)=O)NC(=O)[C@@H](Cc2ccc(O)cc2)NC(=O)[C@@H](CCCNC(=N)N)NC(=O)[C@@H](CC(C)C)NC(=O)C1	S. aureus (ATCC 29213)	> 64 µg/mL
CC[C@@H](C)[C@@H](NC(=O)[C@@H](CCCCN)NC(=O)[C@@H](CCCCN)NC(=O)[C@@H](Cc1ccccc1)NC(=O)[C@@H](CC(C)C)NC(=O)[C@@H](CCCCN)NC(=O)[C@H](N)CCCCN)C(=O)N[C@H](CC(C)C)C(=O)N1CCCC[C@H](C(N)=O)NC(=O)[C@@H](Cc2ccc(O)cc2)NC(=O)[C@@H](CCCNC(=N)N)NC(=O)C1	S. aureus (ATCC 29213)	> 64 µg/mL

====

# System: S. aureus (ATCC 29213)
# PROCEDURE DETAILS: MIC determination, broth microdilution
# Type: cell-based, Staphylococcus aureus
# APPLIED CONDITIONS: value in brackets; S. aureus ATCC 29213; MHB-II, 37 °C, 18–24 h, triplicate
Non-standard residues stand in square brackets, D forms with d. Residues, ends and D or L forms follow the SMILES beside them. *: point of attachment. Lauroyl = CCCCCCCCCCCC(=O)*; Hexanoyl = CCCCCC(=O)*
Note to self: MIC SA under 5 µM means satisfied, ties and anything higher get not satisfied.

MOLECULE	ASSIGNED LABEL
CCCCCCCCCC(=O)N[C@H](CCCCN)C(=O)N[C@H](CCCCN)C(=O)N[C@H](CC(C)C)C(=O)N[C@H](Cc1ccccc1)C(=O)N[C@H](CCCCN)C(=O)N[C@H](CCCCN)C(=O)N[C@@H](C(=O)N[C@H](CC(C)C)C(=O)N1CCCC[C@H](C(N)=O)NC(=O)[C@@H](Cc2ccc(O)cc2)NC(=O)[C@@H](CCCNC(=N)N)NC(=O)C1)[C@H](C)CC [compound 10]	satisfied
CCCCCC(=O)N[C@H](CCCCN)C(=O)N[C@H](CCCCN)C(=O)N[C@H](CC(C)C)C(=O)N[C@H](Cc1ccccc1)C(=O)N[C@H](CCCCN)C(=O)N[C@H](CCCCN)C(=O)N[C@@H](C(=O)N[C@H](CC(C)C)C(=O)N[C@H](CCCNC(=N)N)C(=O)N[C@H](Cc1ccc(O)cc1)C(=O)N[C@H](CC(C)C)C(N)=O)[C@H](C)CC [compound 2] (Hexanoyl-[dK][dK][dL][dF][dK][dK][dI][dL][dR][dY][dL]-NH2)	not satisfied
CCCCCCCCCCCCCC(=O)N[C@H](CCCCN)C(=O)N[C@H](CCCCN)C(=O)N[C@H](CC(C)C)C(=O)N[C@H](Cc1ccccc1)C(=O)N[C@H](CCCCN)C(=O)N[C@H](CCCCN)C(=O)N[C@@H](C(=O)N1CCCC[C@H](C(N)=O)NC(=O)[C@@H](Cc2ccc(O)cc2)NC(=O)[C@@H](CCCNC(=N)N)NC(=O)[C@@H](CC(C)C)NC(=O)C1)[C@H](C)CC [compound 15]	satisfied
CCCCCCCCCC(=O)N[C@H](CCCCN)C(=O)N[C@H](CCCCN)C(=O)N[C@H](CC(C)C)C(=O)N[C@H](Cc1ccccc1)C(=O)N[C@H](CCCCN)C(=O)N[C@H](CCCCN)C(=O)N[C@@H](C(=O)N1CCCC[C@H](C(N)=O)NC(=O)[C@@H](Cc2ccc(O)cc2)NC(=O)[C@@H](CCCNC(=N)N)NC(=O)[C@@H](CC(C)C)NC(=O)C1)[C@H](C)CC [compound 13]	satisfied
CCCCCCCCCCCC(=O)N[C@H](CCCCN)C(=O)N[C@H](CCCCN)C(=O)N[C@H](CC(C)C)C(=O)N[C@H](Cc1ccccc1)C(=O)N[C@H](CCCCN)C(=O)N[C@H](CCCCN)C(=O)N[C@@H](C(=O)N[C@H](CC(C)C)C(=O)N[C@H](CCCNC(=N)N)C(=O)N[C@H](Cc1ccc(O)cc1)C(=O)N[C@H](CC(C)C)C(N)=O)[C@H](C)CC [compound 5] (Lauroyl-[dK][dK][dL][dF][dK][dK][dI][dL][dR][dY][dL]-NH2)	not satisfied
CCCCCCCCCCCC(=O)N[C@H](CCCCN)C(=O)N[C@H](CCCCN)C(=O)N[C@H](CC(C)C)C(=O)N[C@H](Cc1ccccc1)C(=O)N[C@H](CCCCN)C(=O)N[C@H](CCCCN)C(=O)N[C@@H](C(=O)N1CCCC[C@H](C(N)=O)NC(=O)[C@@H](Cc2ccc(O)cc2)NC(=O)[C@@H](CCCNC(=N)N)NC(=O)[C@@H](CC(C)C)NC(=O)C1)[C@H](C)CC [compound 14]	satisfied
